pKi: −log10 of the molar value.
Below are pKi values recorded for Adenosine receptor A2a (Rattus norvegicus, UniProt P30543).
QUANTITY: pKi

These solved cases illustrate the format of a correct answer.
CCNC(=O)[C@H]1O[C@@H](n2cnc3c(NC(=O)Nc4cccc(I)c4)ncnc32)[C@H](O)[C@@H]1O	5.40
CCNC(=O)[C@H]1O[C@@H](n2cnc3c(NC(=O)Nc4cccc(Br)c4)ncnc32)[C@H](O)[C@@H]1O	6.54
CCNC(=O)[C@H]1OC(n2cnc3c(NC(=O)Nc4cccc(C(F)(F)F)c4)ncnc32)[C@H](O)[C@@H]1O (some centres undefined)	5.64
CCNC(=O)[C@H]1O[C@@H](n2cnc3c(NC(=O)Nc4ccc(C)cc4)ncnc32)[C@H](O)[C@@H]1O	6.45
CCNC(=O)[C@H]1O[C@@H](n2cnc3c(NC(=O)Nc4ccccc4)ncnc32)[C@H](O)[C@@H]1O	5.27
CNC(=O)[C@H]1O[C@@H](n2cnc3c(NC(=O)Nc4ccc(OC)cc4)ncnc32)[C@H](O)[C@@H]1O	5.06

(P) CCNC(=O)[C@H]1O[C@@H](n2cnc3c(NC(=O)Nc4ccc(F)cc4)ncnc32)[C@H](O)[C@@H]1O
(Q) CCNC(=O)[C@H]1O[C@@H](n2cnc3c(NC(=O)Nc4cccc(Cl)c4)ncnc32)[C@H](O)[C@@H]1O
[Q] I'm curious whether P or Q has the smaller pKi number. Which is it? Bench note: the answer is the label of the chosen record.
[A] P

---

Molecular target: Adenosine receptor A2a and A3 (Rattus norvegicus) (UniProt P30543+P28647)
Sequence (P28647 whole entry, looked up): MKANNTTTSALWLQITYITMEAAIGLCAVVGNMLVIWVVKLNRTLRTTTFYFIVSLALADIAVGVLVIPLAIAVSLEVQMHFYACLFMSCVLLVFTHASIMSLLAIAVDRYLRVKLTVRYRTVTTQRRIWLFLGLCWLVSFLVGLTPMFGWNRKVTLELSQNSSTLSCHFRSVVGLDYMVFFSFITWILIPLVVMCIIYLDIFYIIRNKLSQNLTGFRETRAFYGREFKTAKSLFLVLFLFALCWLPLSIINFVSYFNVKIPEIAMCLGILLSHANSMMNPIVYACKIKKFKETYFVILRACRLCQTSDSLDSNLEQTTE
Sequence (P30543 whole entry, looked up): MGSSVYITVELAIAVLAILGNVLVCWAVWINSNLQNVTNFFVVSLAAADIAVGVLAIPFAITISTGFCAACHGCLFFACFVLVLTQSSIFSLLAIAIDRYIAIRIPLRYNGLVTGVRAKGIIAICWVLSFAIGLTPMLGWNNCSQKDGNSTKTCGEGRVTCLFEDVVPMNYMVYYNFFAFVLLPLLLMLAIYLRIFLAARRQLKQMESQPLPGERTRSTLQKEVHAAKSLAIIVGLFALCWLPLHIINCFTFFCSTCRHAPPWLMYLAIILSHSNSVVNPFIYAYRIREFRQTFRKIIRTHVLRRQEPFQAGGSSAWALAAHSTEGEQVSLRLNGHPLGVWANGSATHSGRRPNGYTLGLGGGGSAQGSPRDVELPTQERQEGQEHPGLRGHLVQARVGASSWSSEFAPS
Assay: Selectivity, ratio between A2A receptor binding affinity / A3 receptor binding affinity
Assay type: protein assay
QUANTITY: Selectivity

CCNC(=O)[C@H]1O[C@@H](n2cnc3c(NC(=O)Nc4ccc(I)cc4)ncnc32)[C@H](O)[C@@H]1O	5.6
CCNC(=O)[C@H]1O[C@@H](n2cnc3c(NC(=O)Nc4ccccc4OC)ncnc32)[C@H](O)[C@@H]1O	38
CCNC(=O)[C@H]1OC(n2cnc3c(NC(=O)Nc4ccc(C(F)(F)F)cc4)ncnc32)[C@H](O)[C@@H]1O (stereo partly drawn)	32
CCNC(=O)[C@H]1O[C@@H](n2cnc3c(NC(=O)Nc4cccc(I)c4)ncnc32)[C@H](O)[C@@H]1O	130

(A) CCNC(=O)[C@H]1OC(n2cnc3c(NC(=O)Nc4cccc(C(F)(F)F)c4)ncnc32)[C@H](O)[C@@H]1O (stereo partly drawn)
(B) CCNC(=O)[C@H]1O[C@@H](n2cnc3c(NC(=O)Nc4cccc(Br)c4)ncnc32)[C@H](O)[C@@H]1O
(C) CCNC(=O)[C@H]1O[C@@H](n2cnc3c(NC(=O)Nc4ccc(F)cc4)ncnc32)[C@H](O)[C@@H]1O
(D) CCNC(=O)[C@H]1O[C@@H](n2cnc3c(NC(=O)Nc4ccccc4F)ncnc32)[C@H](O)[C@@H]1O
[Q] Rank items: key Selectivity, increasing. The labels, placed in the requested order, form the answer.
[A] B, D, A, C

---

Biological target: Adenosine receptor A2a and A3 (Rattus norvegicus) (UniProt P30543+P28647)
Assay: Selectivity, ratio between A2A receptor binding affinity / A3 receptor binding affinity
Format: protein assay
QUANTITY: Selectivity

CCNC(=O)[C@H]1O[C@@H](n2cnc3c(NC(=O)Nc4ccccc4C(F)(F)F)ncnc32)[C@H](O)[C@@H]1O	190
CNC(=O)[C@H]1O[C@@H](n2cnc3c(NC(=O)Nc4ccc(OC)cc4)ncnc32)[C@H](O)[C@@H]1O	160
CCNC(=O)[C@H]1O[C@@H](n2cnc3c(NC(=O)Nc4ccccc4Cl)ncnc32)[C@H](O)[C@@H]1O	180
CNC(=O)[C@H]1O[C@@H](n2cnc3c(NC(=O)Nc4cccc(Cl)c4)ncnc32)[C@H](O)[C@@H]1O	58
CCNC(=O)[C@H]1O[C@@H](n2cnc3c(NC(=O)Nc4ccccc4I)ncnc32)[C@H](O)[C@@H]1O	14
CCNC(=O)[C@H]1O[C@@H](n2cnc3c(NC(=O)Nc4cccc(F)c4)ncnc32)[C@H](O)[C@@H]1O	16

(P) CCNC(=O)[C@H]1O[C@@H](n2cnc3c(NC(=O)Nc4cccc(OC)c4)ncnc32)[C@H](O)[C@@H]1O
(Q) CCNC(=O)[C@H]1O[C@@H](n2cnc3c(NC(=O)NC(C)(C)C)ncnc32)[C@H](O)[C@@H]1O
(R) CCCCCCCCNC(=O)Nc1ncnc2c1ncn2[C@@H]1O[C@H](C(=O)NCC)[C@@H](O)[C@H]1O
[Q] Rank items: key Selectivity, increasing. The labels, placed in the requested order, form the answer.
[A] Q, R, P

(a) CCNC(=O)[C@H]1O[C@@H](n2cnc3c(NC(=O)Nc4ccc(C)cc4)ncnc32)[C@H](O)[C@@H]1O
(b) CCNC(=O)[C@H]1O[C@@H](n2cnc3c(NC(=O)Nc4cccc(Cl)c4)ncnc32)[C@H](O)[C@@H]1O
[Q] Task for the reader: decide whether a or b has the larger Selectivity. Bench note: the answer is the label of the chosen record.
[A] b
(b: 96, a: 11)

(a) CCNC(=O)[C@H]1O[C@@H](n2cnc3c(NC(=O)Nc4ccc(Cl)cc4)ncnc32)[C@H](O)[C@@H]1O
(b) CCNC(=O)[C@H]1O[C@@H](n2cnc3c(NC(=O)Nc4ccc(OC)cc4)ncnc32)[C@H](O)[C@@H]1O
[Q] Task for the reader: decide whether a or b has the larger Selectivity. Bench note: the answer is the label of the chosen record.
[A] b
(b: 510, a: 13)

Provenance of the data: ChEMBL document CHEMBL1129034
